The reported measurements were obtained from patent US20210221899A1.

test-target: T1, rat NGF (rat, UniProt P25427 122-241)
T1 construct: also called rN
T1 sequence (P25427 122-241 limits assumed): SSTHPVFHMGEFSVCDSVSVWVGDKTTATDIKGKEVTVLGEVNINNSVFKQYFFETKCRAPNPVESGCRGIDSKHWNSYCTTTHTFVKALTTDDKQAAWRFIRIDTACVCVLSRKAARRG
experiment-summary: SPR (Biacore T200), 100 nM mAb on NGF chip, similarity to parent mAb

binder | Percent Similarity Score (KD on rN)
can9L12VH_D113A (antibody, V domains shown) VH: EVQLVESGGDLVKPGGSLRLSCVASGFTFSSHGMHWVRQSPGKGLQWVAVINSGGSSTYYTDAVKGRFTISRDNAKNTVYLQMNSLRAEDTAMYYCAKESVGGWEQLVGPHFAYWGQGTLVIVSS VL: QSVLTQPTSVSGSLGQRVTISCSGSTNNIGILGASWYQLFPGKAPKLLVYGNGNRPSGVPDRFSGADSGDSVTLTITGLQAEDEADYYCQSFDTTLGAHVFGGGTHLTVL | 100%
can9L12VL_T94A (antibody, V domains shown) VH: EVQLVESGGDLVKPGGSLRLSCVASGFTFSSHGMHWVRQSPGKGLQWVAVINSGGSSTYYTDAVKGRFTISRDNAKNTVYLQMNSLRAEDTAMYYCAKESVGGWEQLVGPHFDYWGQGTLVIVSS VL: QSVLTQPTSVSGSLGQRVTISCSGSTNNIGILGASWYQLFPGKAPKLLVYGNGNRPSGVPDRFSGADSGDSVTLTITGLQAEDEADYYCQSFDATLGAHVFGGGTHLTVL | 40%
can9L12VH_G102A (antibody, V domains shown) VH: EVQLVESGGDLVKPGGSLRLSCVASGFTFSSHGMHWVRQSPGKGLQWVAVINSGGSSTYYTDAVKGRFTISRDNAKNTVYLQMNSLRAEDTAMYYCAKESVAGWEQLVGPHFDYWGQGTLVIVSS VL: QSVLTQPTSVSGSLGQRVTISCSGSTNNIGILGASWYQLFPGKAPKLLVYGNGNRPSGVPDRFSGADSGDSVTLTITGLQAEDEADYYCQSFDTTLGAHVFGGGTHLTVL | 4.7%
can9L12VL_I29A (antibody, V domains shown) VH: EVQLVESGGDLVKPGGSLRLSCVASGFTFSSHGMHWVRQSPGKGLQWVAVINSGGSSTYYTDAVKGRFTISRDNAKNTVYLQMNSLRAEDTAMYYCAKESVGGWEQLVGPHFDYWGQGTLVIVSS VL: QSVLTQPTSVSGSLGQRVTISCSGSTNNAGILGASWYQLFPGKAPKLLVYGNGNRPSGVPDRFSGADSGDSVTLTITGLQAEDEADYYCQSFDTTLGAHVFGGGTHLTVL | 1.6%
can48L2VL_D52A (antibody, V domains shown, CDR scanning mutant of ZTS-842 (48L2)) VH: EVQLVESGGDLVKPGGSLRLSCVASGFTFSTYGINWVRQAPGKGLQWVAYISSGGSSTYYADPVKGRFTISRDDAKNMLYLQMNSLRAEDTAIYYCAGSRYTYAYGGGYEFHFWGQGTLVTVSS VL: QAVLNQPASVSGALGQKVTISCSGSTMDIDIFGVSWYQQLPGKAPKLLVDSAGDRPSGIPDRFSGSRSGNSGTLTITGLQAEDEADYHCQSGDSTLGALAIFGGGTHVTVL | 99.9%
